- TEST_DESCRIPTION: NCI Yeast Anticancer Drug Screen. Data for the rad50 strain (AID 155)
- RUN_CONDITIONS: S. cerevisiae rad50 strain growth inhibition; at 50.0 µM
Compounds without any hit were thinned out: in the full panel of roughly 79,000, 15% have a hit. Activity calls are given as the source filed them. Rule as the data show it: active = growth inhibition above about 70%; inactive = the rest.
Possible outcomes: active, inactive

COMPOUND: COC1OC(COCc2ccccc2)C(OCc2ccccc2)C(OC)C1O (stereo unspecified)
CLASS_LABEL: inactive
//
COMPOUND: NC(Cc1c[nH]c2ccc(F)cc12)C(=O)O (stereo unspecified)
CLASS_LABEL: inactive
//
COMPOUND: COc1cccc(/S(C)=N/S(=O)(=O)c2ccc(C)cc2)c1 (stereo unspecified)
CLASS_LABEL: inactive
//
COMPOUND: CCOC(=O)C1OC1(C)CC (stereo unspecified)
CLASS_LABEL: inactive
//
COMPOUND: O=S(=O)(Nc1cccc(C2=NCCN2)c1)c1cccc2c(S(=O)(=O)Nc3cccc(C4=NCCN4)c3)cccc12
CLASS_LABEL: inactive
//
COMPOUND: COc1ccc(C(=O)O[C@@H]2CCN3CC[C@H](C)[C@H]23)cc1
CLASS_LABEL: inactive
//
COMPOUND: C=C1C(=O)O[C@H]2/C=C(/C)C3=CC(=O)[C@@](C)(C[C@@H](OC(=O)/C(C)=C\C)C12)O3 (stereo partly specified)
CLASS_LABEL: active
//
COMPOUND: CC(=O)NNc1nc(C)c(C(=O)/C=C/C=C/c2ccccc2)s1
CLASS_LABEL: inactive
//
COMPOUND: CC(C)(C)c1cc2ccc(C(N)=O)cc2c(=O)[nH]1
CLASS_LABEL: inactive
//
COMPOUND: COC(=O)C1=C2C3(O)CC4CC5C3CCC(C)N5C24C2CCC(O)C(OC)C2C1OC(=O)c1ccccc1 (stereo unspecified)
CLASS_LABEL: inactive
//
COMPOUND: CCC1(C(Cl)(Cl)Cl)C=CC(=O)C=C1
CLASS_LABEL: inactive
